tested on: Botryosphaeria berengeriana; assay: Fungicidal activity against Botryosphaeria berengeriana assessed as mycelium growth inhibition at 10 ug/mL by mycelium growth rate method; assay type: functional; details: read-out: GI

- STRUCTURE_NOTATION: "O=[N+]([O-])c1cc(-c2c(Cl)cc(Cl)cc2[N+](=O)[O-])cs1"
  inhibition of growth at 10 µg/mL: "10%"
- STRUCTURE_NOTATION: "O=[N+]([O-])c1cc(-c2ccccc2[N+](=O)[O-])cs1"
  inhibition of growth at 10 µg/mL: "0%"
- STRUCTURE_NOTATION: "O=[N+]([O-])c1cc(-c2cc(F)ccc2[N+](=O)[O-])cs1"
  inhibition of growth at 10 µg/mL: "0%"
- STRUCTURE_NOTATION: "O=[N+]([O-])c1ccc(F)cc1-c1ccsc1"
  inhibition of growth at 10 µg/mL: "0%"
- STRUCTURE_NOTATION: "O=[N+]([O-])c1cc(-c2c(Cl)cc(Cl)c(Cl)c2[N+](=O)[O-])cs1"
  inhibition of growth at 10 µg/mL: "0%"
- STRUCTURE_NOTATION: "O=[N+]([O-])c1cc(Cl)cc(Cl)c1-c1ccsc1"
  inhibition of growth at 10 µg/mL: "42%"
- STRUCTURE_NOTATION: "O=[N+]([O-])c1cc(F)ccc1-c1ccsc1[N+](=O)[O-]"
  inhibition of growth at 10 µg/mL: "0%"
- STRUCTURE_NOTATION: "O=[N+]([O-])c1cc(Cl)ccc1-c1ccsc1"
  inhibition of growth at 10 µg/mL: "14%"
- STRUCTURE_NOTATION: "O=[N+]([O-])c1cc(-c2ccc(Cl)cc2[N+](=O)[O-])cs1"
  inhibition of growth at 10 µg/mL: "0%"
- STRUCTURE_NOTATION: "O=[N+]([O-])c1cc(-c2ccc(F)cc2[N+](=O)[O-])cs1"
  inhibition of growth at 10 µg/mL: "4%"
- STRUCTURE_NOTATION: "O=[N+]([O-])c1cc(Cl)cc(Cl)c1-c1ccsc1[N+](=O)[O-]"
  inhibition of growth at 10 µg/mL: "2%"
- STRUCTURE_NOTATION: "O=[N+]([O-])c1ccccc1-c1ccsc1"
  inhibition of growth at 10 µg/mL: "20%"
- STRUCTURE_NOTATION: "O=[N+]([O-])c1cc(-c2cc(Cl)c(F)cc2[N+](=O)[O-])cs1"
  inhibition of growth at 10 µg/mL: "0%"
- STRUCTURE_NOTATION: "O=[N+]([O-])c1sccc1-c1c(Cl)cc(Cl)c(Cl)c1[N+](=O)[O-]"
  inhibition of growth at 10 µg/mL: "0%"

---

Entries and their inhibition of growth at 10 µg/mL values follow.
system: Botryosphaeria berengeriana; test: Fungicidal activity against Botryosphaeria berengeriana assessed as mycelium growth inhibition at 10 ug/mL by mycelium growth rate method; format: functional; details: read-out: GI

- STRUCTURE_NOTATION: "O=[N+]([O-])c1ccc(F)cc1-c1ccsc1[N+](=O)[O-]"
  inhibition of growth at 10 µg/mL (%): 0
- STRUCTURE_NOTATION: "O=[N+]([O-])c1ccccc1-c1ccsc1[N+](=O)[O-]"
  inhibition of growth at 10 µg/mL (%): 0
- STRUCTURE_NOTATION: "O=[N+]([O-])c1cc(F)c(Cl)cc1-c1ccsc1"
  inhibition of growth at 10 µg/mL (%): 64
- STRUCTURE_NOTATION: "O=[N+]([O-])c1cc(F)c(Cl)cc1-c1ccsc1[N+](=O)[O-]"
  inhibition of growth at 10 µg/mL (%): 12
- STRUCTURE_NOTATION: "O=[N+]([O-])c1cc(F)ccc1-c1ccsc1"
  inhibition of growth at 10 µg/mL (%): 0
- STRUCTURE_NOTATION: "O=[N+]([O-])c1cc(Cl)ccc1-c1ccsc1[N+](=O)[O-]"
  inhibition of growth at 10 µg/mL (%): 0
